Values compiled from patent US7332476B2.

- Test system: Streptococcus pneumoniae Stpn_49619
- testDescription: MIC, broth microdilution (NCCLS)
- Assay type: cell-based
- condition: Table 7, Strain ID F (Table 6): S. pneumoniae Stpn_49619
property: MIC

* CC[C@H]1OC(=O)[C@@](C)(F)C(=O)[C@H](C)[C@@H](OC2O[C@H](C)C[C@H](N(C)C)[C@H]2O)[C@@](C)(OC)C[C@@H](C)C(=O)[C@H](C)[C@H]2N(CCCCc3ccnc4ccccc34)C(=O)O[C@]12CC (some centres unmarked) | =0.05
* C/C=C\[C@]12OC(=O)N(CCCCn3cnc(-c4cccnc4)c3)[C@@H]1[C@@H](C)C(=O)[C@H](C)C[C@](C)(OC)[C@H](OC1O[C@H](C)C[C@H](N(C)C)[C@H]1O)[C@@H](C)C(=O)[C@](C)(F)C(=O)O[C@@H]2CC (some centres unmarked) | =0.05
